- study system: T1, EsCas13d, nuclease-dead (Eubacterium siraeum, UniProt B0MS50, R295A;H300A;R849A;H854A)
- T1 sequence: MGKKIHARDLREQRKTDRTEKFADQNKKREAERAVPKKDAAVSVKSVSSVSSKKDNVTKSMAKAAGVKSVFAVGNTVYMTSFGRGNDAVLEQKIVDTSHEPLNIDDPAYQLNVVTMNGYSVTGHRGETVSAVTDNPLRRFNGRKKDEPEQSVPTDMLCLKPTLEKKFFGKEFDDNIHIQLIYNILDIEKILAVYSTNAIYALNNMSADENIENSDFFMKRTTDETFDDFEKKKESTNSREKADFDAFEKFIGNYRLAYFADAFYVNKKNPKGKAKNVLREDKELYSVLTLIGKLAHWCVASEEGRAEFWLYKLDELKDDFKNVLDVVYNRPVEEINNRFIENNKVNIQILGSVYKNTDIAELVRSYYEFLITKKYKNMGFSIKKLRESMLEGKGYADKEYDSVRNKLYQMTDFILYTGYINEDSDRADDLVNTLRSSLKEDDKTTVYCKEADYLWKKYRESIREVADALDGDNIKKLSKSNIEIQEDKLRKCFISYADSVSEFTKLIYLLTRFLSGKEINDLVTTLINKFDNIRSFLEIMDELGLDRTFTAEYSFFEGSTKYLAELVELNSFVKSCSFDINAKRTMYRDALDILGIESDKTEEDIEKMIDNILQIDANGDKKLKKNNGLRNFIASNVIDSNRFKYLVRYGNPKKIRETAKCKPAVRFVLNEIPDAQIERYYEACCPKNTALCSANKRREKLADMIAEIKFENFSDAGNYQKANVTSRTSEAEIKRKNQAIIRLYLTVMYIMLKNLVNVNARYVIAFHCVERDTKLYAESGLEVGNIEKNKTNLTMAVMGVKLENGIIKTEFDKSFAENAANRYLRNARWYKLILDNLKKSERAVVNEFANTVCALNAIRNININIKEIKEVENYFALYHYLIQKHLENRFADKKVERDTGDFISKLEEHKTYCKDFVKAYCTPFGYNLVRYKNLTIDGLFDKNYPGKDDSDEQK
- measurement protocol: crRNA (strand 1, pre-loaded); Mg2+; 40 mM Tris-HCl pH 7.5, 150 mM NaCl, 6 mM MgCl2, 1 mM DTT, 0.1% Tween-20, 0.2 mg/ml BSA; 25 C; 10 min per concentration, then washed
- condition notes: tags: His6-TwinStrep-SUMO cleaved; N-terminal SNAP kept (SNAP-Surface 488); label: 3' end held by stalled T7 RNA polymerase
# key: entry, value: Kd
Please give a number only; it is taken to be in nM.

Below: 3 binders and their reported Kd.
target 1 insG 3' of 4,insG 3' of 2 (mixed) RNA 1: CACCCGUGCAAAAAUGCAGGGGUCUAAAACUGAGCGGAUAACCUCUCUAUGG RNA 2: GGGAAUGGAUCCACAUCUACGAAUUCGUACCAUAGAGAGGUUAUCCGCGUCGACCGAGAUCGGAAGAGCACACGU : 4.72
target 3 C1G,U22A (mixed) RNA 1: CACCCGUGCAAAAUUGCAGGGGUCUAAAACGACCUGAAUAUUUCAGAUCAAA RNA 2: GGGAAUGGAUCCACAUCUACGAAUUCGUUAUUGAUCUGAAAUAUUCAGGUGUGCAGAUCGGAAGAGCACACGU : 25.1
target 1 insU 3' of 9,insC 3' of 8 (mixed) RNA 1: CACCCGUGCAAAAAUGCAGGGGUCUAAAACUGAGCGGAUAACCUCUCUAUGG RNA 2: GGGAAUGGAUCCACAUCUACGAAUUCGUACCAUAGAGAGGUUAUUCCCGCUCACCGAGAUCGGAAGAGCACACGU : 42

Please turn your attention to the following entry.
Report Kd, nothing else, for this binder: target 1 MT 5'PFS GCC 3'PFS CCG (mixed) RNA 1: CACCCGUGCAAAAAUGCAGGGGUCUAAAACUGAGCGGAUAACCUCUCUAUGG RNA 2: GGGAAUGGAUCCACAUCUACGAAUUCGCCCCAUAGAGAGGUUAUCCGCUCACCGAGAUCGGAAGAGCACACGU
12.9
